# Test system: Hepatitis C virus
# run_description: Antiviral activity against HCV Con1 infected in human GS4.1 cells containing HCV Con1 subgenomic replicon assessed as reduction in NS5A protein expression by ELISA method
# Assay type: functional, cell-based, Hepacivirus hominis
# condition_parameters: genotype 1b Con1
recorded_metric: EC50 (nM)

1. COc1ccc2c(OCC[C@@H]3NC(=O)N(C)CCCC/C=C\[C@@H]4C[C@@]4(C(=O)NS(=O)(=O)C4(F)CC4)NC3=O)cc(-c3nc(C(C)C)cs3)nc2c1Cl
2. CCn1cc(-c2cc(OCC[C@@H]3NC(=O)N(C)CCCC/C=C\[C@@H]4C[C@@]4(C(=O)NS(=O)(=O)C4(C)CC4)NC3=O)c3ccc(OC)c(C)c3n2)cn1
3. COc1ccc2c(OCC[C@@H]3NC(=O)N(C)CCCC/C=C\[C@@H]4C[C@@]4(C(=O)NS(=O)(=O)N(C)C)NC3=O)cc(-c3nc(C(C)C)cs3)nc2c1Cl
Q) Highest EC50 first, then in falling order down to the smallest. Put the labels in the requested order and list them out.
A) 2, 1, 3
